Source listed as patent US20190248902A1.

Molecular target: T1, human ASGR-1 mutant construct H203 (human, UniProt P07306 1-291)
T1 construct: Arg/Glu scanning: non-arginine residues were changed to arginine; Transiently expressed on CHO-S cells
T1 sequence: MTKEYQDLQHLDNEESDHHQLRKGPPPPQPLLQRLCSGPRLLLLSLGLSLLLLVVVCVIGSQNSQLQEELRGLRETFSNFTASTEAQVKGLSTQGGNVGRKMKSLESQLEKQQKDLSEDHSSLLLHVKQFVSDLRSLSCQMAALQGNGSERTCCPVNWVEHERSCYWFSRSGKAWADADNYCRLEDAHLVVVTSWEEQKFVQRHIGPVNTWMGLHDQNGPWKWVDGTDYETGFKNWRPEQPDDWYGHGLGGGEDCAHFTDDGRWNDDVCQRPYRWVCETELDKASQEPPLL
Assay: FACS ratio: 65C12 geomean / this mAb geomean
observable: Expression Normalization to mAb 65C12
Please state the value as a number alone, without comment.

Please review the following examples before continuing.
binder	Expression Normalization to mAb 65C12
191G1 (antibody, V domains shown, mAb) VH: QVQLVESGGGVVQPGRSLRLSCAASGFTFSSYGMHWVRQAPGKGLEWVAVIWYDGSNEHYADSVKGRFTISRDNSKNTLYLQMNSLRAEDTAVYYCARDRGVGYYGLDVWGQGTTVTVSS VL: DIQMTQSPSSLSASVGDRVTITCRASQGISNYLAWFQQKPGKAPKSLIYAASSLQSGVPSKFSGSGSGTDFTLTISSLQPEDFATYYCQHYLTYPLTFGGGTKVEIK	2.37
193E7 (antibody, V domains shown, mAb) VH: QVQLQQWGAGLLKPSETLSLTCAVYGGSFSGYFWTWIRQPPGKGLEWIGEINHSGSTNYNPSLKSRVTISVDTSKNQFSLKLSSVTAADTAVYYCARDYGADYWGQGTLVAVSA VL: DIQMTQSPSSLSASVGDRVTITCRASQGIRNDLGWYQQKPGKAPKRLIYSASSLQRGVPSRFSGSGSGTEFTLTISSLQPEDFATYYCLQHKRYPLTFGGGTKVEIK	1.87

Now look at this one.
Data request: Look up and report measured Expression Normalization to mAb 65C12 for this entry: 61A1 (antibody, V domains shown, mAb) VH: QVQLQESGPGLVKPSETLSLTCTVSGGSISSHFWSWIRQPAGKGLEWIGRIYIRGSTNYNPSLKSRVTMSVDTSKNQFSLKLSSVTAADTAVYYCAREGKTGGVSYFDYWGQGTLVTVSS VL: DIQMTQSPSSLSASVGDRVTITCRASQSISSYLNWYQQKPGKAPKLLIYAASSLQSGVPSRFSGSGSGTDFTLTISSLQPEDFAPYYCQQSYNISFTFGPGTKVDIK
Data returned: 1.28
